- Assayed System: T1, recombinant canine OX40L ECD-TNCc-HIS protein (canine)
- T1 construct: also called Trimeric OX40L probe (HIS tag); trimeric canine OX40L
- T1 chain: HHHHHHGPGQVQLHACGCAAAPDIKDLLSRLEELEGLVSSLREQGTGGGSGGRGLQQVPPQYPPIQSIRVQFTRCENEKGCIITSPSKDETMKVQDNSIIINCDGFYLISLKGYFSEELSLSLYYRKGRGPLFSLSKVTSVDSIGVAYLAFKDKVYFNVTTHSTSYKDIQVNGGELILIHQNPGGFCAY
- Test Name: SPR KD1, bivalent analyte model
Measured Quantity: pKd
As a rule, pKd stands for the negative log10 of the concentration, concentration in M.

Give its pKd value. Item: PMX036 (antibody, V domains shown, also called PMX36) VH: EVQLVESGGDLVKPGGSLRLSCVASGFTFSSYHMSWVRQAPGKGLQWVAYITSGGRTTSYADAVKGRFTISRDNAKNTLYLQMNSLRAEDTAVYYCASDLVLVLGGADYWGQGTLVTVSS VL: SYELTQPPSVNVTLRETAHITCGGDSIGRKYVQWIQQNPGQAPVVIIYKDTNRPTGIPERFSGANSGNTATLTISGALAEDEADYYCQVGDSGTKAVFGGGTHLTVL
7.67

Give its pKd value. Item: PMX065 (antibody, V domains shown, also called PMX65) VH: EVQLVESGGDLVKPGGSLRLSCVASGFTFNNYEMYWVRQAPGKGLEWVARIYESGSTTFSAEAVTGRFTISRDNAKNMVYLQMNSLRAEDTAVYYCASASSSSWRFDYWGQGTLVTVSS VL: SYVLTQLPSVSVTLGQTARITCGGDSIGRKNVCWFQQRLGQAPELIIYDDRSRPSGIPERFSGANSGNTATLTISGALAEDEADYYCQVWDSSTGVFGGGTHLTVL
6.97

Give its pKd value. Item: PMX034 (antibody, V domains shown, also called PMX34) VH: EVQLVESGGDLVKPGGSLRLSCVASGFTFSNYHMSWVRQAPGKGLQWVAYIVSGGSSTTYADAVKGRFTISRDNAKNTLYLQMTSLRAEDTAVYYCASDLVLLVGGADYWGQGTLVTVSS VL: SYELTQPPSVNVTLRETAHITCGGDSIGSKYVQWIQQNPGQAPVVIIYKDSNRPTGIPERFSGANSGNTATLTISGALAEDEADYYCQVGDSGTKAVFGGGTHLTVL
5.14

Give its pKd value. Item: PMX025 (antibody, V domains shown, also called PMX25) VH: EVHLVESGGDLVKPGGSLRLSCVASGFTFSSYHMSWVRQAPGKGLQWVAFINAGEISTNYADAVKGRFTISRDNAKNILYLQMNSLRAEDTAVYYCASGHIWIRPFDYWGQGTLVTVSS VL: SYVLTQLPSMSVTLRQTARITCEGDSIGRKRVNWYQQKLGQVPVLIIYDDDSRPSGIPERFSGANSGNTATLTISGALAEDEAEYYCQVWDSSNNWVFGEGTQLTVL
6.71

Give its pKd value. Item: PMX028 (antibody, V domains shown, also called PMX28) VH: EVQMVESGGDLVKPGGSLRLSCVASGFTFSDYHMSWVRQAPGKGLQWVAYITSGGSSTSYADAVKGRFTISRDNAKNTLYLQMNSLRAEDTAVYYCASDLVLVVGGGVYWGQGTLVTVSS VL: SYELTQPPSVNVTLRETAHITCGGDSIGSKYVQWIQQNPGQAPVVIIYKDSNRPTGIPERFSGANSGNTATLTISGALAEDEADYYCQVGDSGTKAVFGEGTQLTVL
7.77

Give its pKd value. Item: PMX047 (antibody, V domains shown, also called PMX47) VH: EVQLVESGGDLVKPGGSLRLSCVASGFIFSSYSMSWVRQAPEKGLQLVAGINSAGSSTYYTDAVKGRFTISRDNAKNTVYLQMNSLRAEDTAIYYCAKRWVFDFWGQGTLVTVSS VL: HIVMTQTPLSLSVSPGEPASISCKASQSLLLSYGNTYLYWFRQKPGQSPQRLIYKVSNRDPGVPDRFSGSGSGTDFTLRISRVEADDAGVYYCGQGIQDPFTFGQGTKLEIK
7.90
